Target: JAK1 (Homo sapiens (Human), UniProt P23458)
Sequence (P23458 850-1154): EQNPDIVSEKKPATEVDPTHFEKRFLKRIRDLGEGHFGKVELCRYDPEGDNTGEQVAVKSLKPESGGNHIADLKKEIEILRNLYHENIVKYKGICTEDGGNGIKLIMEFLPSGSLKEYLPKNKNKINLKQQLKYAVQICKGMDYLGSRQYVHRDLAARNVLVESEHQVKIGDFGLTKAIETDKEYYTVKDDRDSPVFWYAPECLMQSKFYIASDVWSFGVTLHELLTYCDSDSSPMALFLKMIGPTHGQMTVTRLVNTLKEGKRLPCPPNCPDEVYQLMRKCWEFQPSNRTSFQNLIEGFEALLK
Test: JAK kinase assay (HTRF), JAK1
Conditions: catalytic domain (aa 850-1154), GST-tag, ATP at Km (7 μM)
recorded metric: EC50 (µM)
One number for each entry, in µM.

compound="C[C@]12CN(c3ccc(S(C)(=O)=O)cc3)C[C@H]1CCN(c1ncnc3[nH]ccc13)C2 (racemic)" output_unit=µM test_result=0.007

Record EC50 per entry; entries follow.
1. Cc1cc(N2CC[C@H]3CCN(c4ncnc5[nH]ccc45)C[C@@]3(C)C2)ncc1C#N (racemic)
2. Cc1nc(N2CC[C@H]3CCN(c4ncnc5[nH]ccc45)C[C@@]3(C)C2)ccc1C#N (racemic)
3. C[C@]12CN(c3ncc(Br)cc3CO)C[C@H]1CCN(c1ncnc3[nH]ccc13)C2 (racemic)

[A]
1: 0.086; 2: 0.112; 3: 0.012

Record EC50 per entry; entries follow.
1. C[C@]12CN(c3ccc(C#N)cn3)C[C@H]1CCN(c1ncnc3[nH]ccc13)C2 (racemic)
2. C[C@@]12CN(c3ncnc4[nH]ccc34)CC[C@@H]1CCN(S(N)(=O)=O)C2 (racemic)
3. C[C@@]12CN(C#N)CC[C@@H]1CCN(c1ncnc3[nH]ccc13)C2
4. Cc1nc(N2C[C@H]3CCN(c4ncnc5[nH]ccc45)C[C@@]3(C)C2)ccc1C#N (racemic)
5. Cc1cc(N2C[C@H]3CCN(c4ncnc5[nH]ccc45)C[C@@]3(C)C2)ncc1C#N (racemic)
6. Cc1cc(C#N)cnc1N1CC[C@H]2CCN(c3ncnc4[nH]ccc34)C[C@@]2(C)C1 (racemic)

[A]
1. 0.005
2. 0.039
3. 0.237
4. 0.03
5. 0.003
6. 0.086

Record EC50 per entry; entries follow.
1. C[C@]12CN(C#N)CC[C@H]1CCN(c1ncnc3[nH]ccc13)C2 (relative stereo) [Example 2]
2. CC12CN(c3ccc(C#N)cn3)C[C@@H]1CCN(c1ncnc3[nH]ccc13)C2 (stereo in doubt)
3. C[C@@]12CN(c3ncnc4[nH]ccc34)CC[C@@H]1CN(S(=O)(=O)NCC#N)C2 (racemic)
4. C[C@@]12CN(c3ncnc4[nH]ccc34)CC[C@@H]1CN(S(=O)(=O)CC(F)(F)F)C2 (racemic)
5. C[C@@]12CN(c3ncnc4[nH]ccc34)CC[C@@H]1CN(S(N)(=O)=O)C2 (racemic)
6. C[C@]12CN(c3ccc(S(C)(=O)=O)cn3)C[C@H]1CCN(c1ncnc3[nH]ccc13)C2 (racemic)
7. C[C@]12CN(C#N)CC[C@H]1CCN(c1ncnc3[nH]ccc13)C2 [Example 1]
8. CC[C@@]12CN(c3ncnc4[nH]ccc34)CC[C@@H]1CCN(S(N)(=O)=O)C2 (relative stereo) [Example 17]

[A]
[0.001, 0.192, 0.029, 0.133, 0.04, 0.013, 0.001, 0.002]

Record EC50 per entry; entries follow.
1. Cc1cc(C#N)cnc1N1C[C@H]2CCN(c3ncnc4[nH]ccc34)C[C@@]2(C)C1 (racemic)
2. CC[C@]12CN(C#N)CC[C@H]1CCN(c1ncnc3[nH]ccc13)C2 (relative stereo) [Example 23]
3. C[C@]12CN(c3cnc(C#N)cn3)C[C@H]1CCN(c1ncnc3[nH]ccc13)C2 (racemic)
4. C[C@]12CN(c3ncc(C#N)cn3)CC[C@H]1CCN(c1ncnc3[nH]ccc13)C2 (racemic)
5. CC[C@]12CN(c3nnc(Br)s3)CC[C@H]1CCN(c1ncnc3[nH]ccc13)C2 (relative stereo)
6. C[C@@]12CN(c3ncnc4[nH]ccc34)CC[C@@H]1CCN(S(C)(=O)=O)C2 (racemic)
7. C[C@@]12CN(c3ncnc4[nH]ccc34)CC[C@@H]1CN(S(C)(=O)=O)C2 (racemic)
8. C[C@]12CN(c3cnc(C#N)cn3)CC[C@H]1CCN(c1ncnc3[nH]ccc13)C2 (racemic)

[A]
[0.065, 0.002, 0.003, 0.046, 0.004, 0.072, 0.093, 0.004]
